# target: monkey GPC3-His protein (monkey)
# measurement-description: ELISA, monkey GPC3-His coated; antibody 0.11 nM
OD450 nm listing for selected binders.
Number only, no unit.

{"binder": "hAb007LH1L1 (antibody, human IgG1, V domains shown) VH: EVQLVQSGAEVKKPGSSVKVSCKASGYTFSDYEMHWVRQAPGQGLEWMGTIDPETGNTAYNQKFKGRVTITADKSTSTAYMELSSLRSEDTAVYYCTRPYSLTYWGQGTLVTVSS VL: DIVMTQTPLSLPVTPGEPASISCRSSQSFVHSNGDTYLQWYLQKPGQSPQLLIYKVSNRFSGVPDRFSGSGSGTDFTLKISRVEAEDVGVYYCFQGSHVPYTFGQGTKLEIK", "quantitative-result": 1.46}

Proceed to the following item.
The recorded OD450 nm for hAb006LH2L1 (antibody, human IgG1, V domains shown) VH: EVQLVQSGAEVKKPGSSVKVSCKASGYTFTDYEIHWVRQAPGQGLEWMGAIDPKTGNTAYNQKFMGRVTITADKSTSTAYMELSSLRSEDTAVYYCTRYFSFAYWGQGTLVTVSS VL: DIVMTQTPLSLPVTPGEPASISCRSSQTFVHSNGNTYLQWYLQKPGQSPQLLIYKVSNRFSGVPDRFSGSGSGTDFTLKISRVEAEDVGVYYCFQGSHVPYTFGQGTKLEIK is 2.01
